Experiment: MHET released, HPLC; higher = more MHET released; extreme values may be limits of the assay
Details: PET substrate: aFilm; 70 °C; pH 4.5; 24 h
attribute-measured: MHET released (mM)
Numeric answer only, unit mM assumed.

sequence-code	MHET released / mM
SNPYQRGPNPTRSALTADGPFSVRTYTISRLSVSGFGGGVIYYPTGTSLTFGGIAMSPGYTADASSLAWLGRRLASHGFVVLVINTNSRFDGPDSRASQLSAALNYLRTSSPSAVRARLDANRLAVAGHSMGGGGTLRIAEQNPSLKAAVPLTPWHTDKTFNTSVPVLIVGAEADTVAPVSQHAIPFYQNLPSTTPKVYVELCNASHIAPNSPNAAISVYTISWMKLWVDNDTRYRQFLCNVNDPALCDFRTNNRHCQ [LCC-ICCG RIP]	0.00485
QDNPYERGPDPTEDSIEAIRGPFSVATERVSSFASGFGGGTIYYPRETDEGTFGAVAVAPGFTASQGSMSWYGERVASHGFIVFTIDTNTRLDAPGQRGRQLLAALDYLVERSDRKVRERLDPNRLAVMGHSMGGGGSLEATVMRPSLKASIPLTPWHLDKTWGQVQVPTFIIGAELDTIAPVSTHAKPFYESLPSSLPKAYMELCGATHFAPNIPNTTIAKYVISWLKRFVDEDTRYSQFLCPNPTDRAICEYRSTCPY [Cut190*SS]	0
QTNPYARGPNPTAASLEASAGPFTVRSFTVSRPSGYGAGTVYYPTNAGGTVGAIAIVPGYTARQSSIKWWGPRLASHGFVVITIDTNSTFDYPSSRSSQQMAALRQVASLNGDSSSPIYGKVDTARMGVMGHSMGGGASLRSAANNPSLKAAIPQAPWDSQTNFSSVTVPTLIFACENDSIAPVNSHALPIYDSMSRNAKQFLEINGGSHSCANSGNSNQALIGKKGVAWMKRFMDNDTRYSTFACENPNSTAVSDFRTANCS [DuraPETase]	0

Notebook: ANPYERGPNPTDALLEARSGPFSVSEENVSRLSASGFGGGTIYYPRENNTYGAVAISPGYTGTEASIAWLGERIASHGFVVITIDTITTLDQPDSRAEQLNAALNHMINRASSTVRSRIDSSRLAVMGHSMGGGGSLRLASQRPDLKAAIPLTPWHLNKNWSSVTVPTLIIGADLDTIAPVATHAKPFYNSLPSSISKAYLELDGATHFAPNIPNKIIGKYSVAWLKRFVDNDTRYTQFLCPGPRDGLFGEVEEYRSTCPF [TfCut2] , MHET released read as 0
